assay: Phase 1 single ascending dose (Part A) pharmacokinetics, fasted state; assay type: in vivo, human; conditions: human, plasma, oral, 25 mg single dose (A1)
experimentalReadout: AUC(0-inf)

### Prompt Please give the measured AUC(0-inf) for this compound: "Cn1cc(-c2cn(-c3ccc(OC(F)(F)F)cc3)c(=O)c3ncn(C)c23)cn1"
### Response 4600 ng·h/mL

###

test: Phase 1 Part A food effect (high-fat / low-fat breakfast) on single-dose pharmacokinetics; assay type: in vivo, human; details: human, plasma, oral, 400 mg, 400 mg single dose (A4), Fed, High-fat; read-out: Vz/F
experimentalReadout: Vd/F (L)
Hi! Could you send only the number? It should be in L, unit omitted.

### Prompt Please give the measured Vd/F for this molecule: "Cn1cc(-c2cn(-c3ccc(OC(F)(F)F)cc3)c(=O)c3ncn(C)c23)cn1"
### Response 57.8

###

assay: Phase 1 single ascending dose (Part A) pharmacokinetics, fasted state; assay type: in vivo, human; conditions: human, plasma, oral, 200 mg single dose (A3)
experimentalReadout: AUC(0-inf) (ng·h/mL)
Hi! Could you send only the number? It should be in ng·h/mL, unit omitted.

### Prompt Please give the measured AUC(0-inf) for this compound: "Cn1cc(-c2cn(-c3ccc(OC(F)(F)F)cc3)c(=O)c3ncn(C)c23)cn1"
### Response 32600

###

assay: Phase 1 Part A proton pump inhibitor (rabeprazole) effect on single-dose pharmacokinetics; assay type: in vivo, human; conditions: human, plasma, oral, 800 mg single dose (A5), Fed, Low-fat, +20 mg Rabeprazole QD x 3
experimentalReadout: half-life (h)
Hi! Could you send only the number? It should be in h, unit omitted.

### Prompt Please give the measured half-life for this compound: Cn1cc(-c2cn(-c3ccc(OC(F)(F)F)cc3)c(=O)c3ncn(C)c23)cn1 [Compound I]
### Response 8.92

###

assay: Phase 1 multiple ascending dose (Part B) pharmacokinetics after low-fat meal; format: in vivo, human; conditions: human, plasma, oral; 200 mg BID (B1), Day 7, low-fat meal; read-out: Vz/F
experimentalReadout: Vd/F (L)
Hi! Could you send only the number? It should be in L, unit omitted.

### Prompt Please give the measured Vd/F for this compound: "Cn1cc(-c2cn(-c3ccc(OC(F)(F)F)cc3)c(=O)c3ncn(C)c23)cn1"
### Response 36.1

###

test: Phase 1 single ascending dose (Part A) pharmacokinetics, fasted state; type: in vivo, human; conditions: human, urine, oral, 75 mg single dose (A2)
experimentalReadout: CL renal (mL/min)
Hi! Could you send only the number? It should be in mL/min, unit omitted.

### Prompt Please give the measured CL renal for this compound: "Cn1cc(-c2cn(-c3ccc(OC(F)(F)F)cc3)c(=O)c3ncn(C)c23)cn1"
### Response 71.8

###

assay: Phase 1 multiple ascending dose (Part B) pharmacokinetics after low-fat meal; format: in vivo, human; conditions: human, plasma, oral, 200 mg, 200 mg BID (B1), Day 7, low-fat meal
experimentalReadout: Cmax
Please make sure the unit comes right after the number.

### Prompt Please give the measured Cmax for this compound: Cn1cc(-c2cn(-c3ccc(OC(F)(F)F)cc3)c(=O)c3ncn(C)c23)cn1 [Compound I]
### Response 6060 ng/mL

###

test: Phase 1 single ascending dose (Part A) pharmacokinetics, fasted state; assay type: in vivo, human; details: human, plasma, oral, 800 mg single dose (A5), read-out: Vz/F
experimentalReadout: Vd/F
Please make sure the unit comes right after the number.

### Prompt Please give the measured Vd/F for this compound: "Cn1cc(-c2cn(-c3ccc(OC(F)(F)F)cc3)c(=O)c3ncn(C)c23)cn1"
### Response 234 L

###

assay: Phase 1 single ascending dose (Part A) pharmacokinetics, fasted state; type: in vivo, human; details: human, plasma, oral, 1600 mg single dose (A6)
experimentalReadout: AUC(0-t) (ng·h/mL)
Hi! Could you send only the number? It should be in ng·h/mL, unit omitted.

### Prompt Please give the measured AUC(0-t) for this molecule: "Cn1cc(-c2cn(-c3ccc(OC(F)(F)F)cc3)c(=O)c3ncn(C)c23)cn1"
### Response 73600

###

assay: Phase 1 Part A food effect (high-fat / low-fat breakfast) on single-dose pharmacokinetics; format: in vivo, human; conditions: human, plasma, oral, 400 mg, 400 mg single dose (A4), Fed, Low-fat; read-out: t1/2 (converted)
experimentalReadout: half-life (h)
Hi! Could you send only the number? It should be in h, unit omitted.

### Prompt Please give the measured half-life for this compound: "Cn1cc(-c2cn(-c3ccc(OC(F)(F)F)cc3)c(=O)c3ncn(C)c23)cn1"
### Response 7.52

###

experiment: Phase 1 Part A proton pump inhibitor (rabeprazole) effect on single-dose pharmacokinetics; type: in vivo, human; details: human, plasma, oral, 400 mg single dose (A4), Fasted, +20 mg Rabeprazole QD x 3
experimentalReadout: AUC(0-t) (ng·h/mL)
Hi! Could you send only the number? It should be in ng·h/mL, unit omitted.

### Prompt Please give the measured AUC(0-t) for this molecule: "Cn1cc(-c2cn(-c3ccc(OC(F)(F)F)cc3)c(=O)c3ncn(C)c23)cn1"
### Response 46500

###

assay: Phase 1 multiple ascending dose (Part B) pharmacokinetics after low-fat meal; assay type: in vivo, human; settings: human, plasma, oral, 525 mg, 525 mg QD (B2), Day 7, low-fat meal; median
experimentalReadout: Tmax (h)
Hi! Could you send only the number? It should be in h, unit omitted.

### Prompt Please give the measured Tmax for this molecule: "Cn1cc(-c2cn(-c3ccc(OC(F)(F)F)cc3)c(=O)c3ncn(C)c23)cn1"
### Response 3.53

###

experiment: Phase 1 Part A food effect (high-fat / low-fat breakfast) on single-dose pharmacokinetics; type: in vivo, human; conditions: human, plasma, oral, 400 mg, 400 mg single dose (A4), Fed, Low-fat; read-out: Vz/F
experimentalReadout: Vd/F
Please make sure the unit comes right after the number.

### Prompt Please give the measured Vd/F for this molecule: Cn1cc(-c2cn(-c3ccc(OC(F)(F)F)cc3)c(=O)c3ncn(C)c23)cn1 [Compound I]
### Response 63.3 L

###

test: Phase 1 Part A food effect (high-fat / low-fat breakfast) on single-dose pharmacokinetics; type: in vivo, human; details: human, plasma, oral, 800 mg, 800 mg single dose (A5), Fed, Low-fat; read-out: Vz/F(norm)
experimentalReadout: Vd/F (L/kg)
Hi! Could you send only the number? It should be in L/kg, unit omitted.

### Prompt Please give the measured Vd/F for this molecule: "Cn1cc(-c2cn(-c3ccc(OC(F)(F)F)cc3)c(=O)c3ncn(C)c23)cn1"
### Response 0.876

###

assay: Phase 1 Part A food effect (high-fat / low-fat breakfast) on single-dose pharmacokinetics; type: in vivo, human; settings: human, plasma, oral, 400 mg, 400 mg single dose (A4), Fed, Low-fat; read-out: AUC0-t
experimentalReadout: AUC(0-t) (ng·h/mL)
Hi! Could you send only the number? It should be in ng·h/mL, unit omitted.

### Prompt Please give the measured AUC(0-t) for this compound: Cn1cc(-c2cn(-c3ccc(OC(F)(F)F)cc3)c(=O)c3ncn(C)c23)cn1 [Compound I]
### Response 73700

###

assay: Phase 1 multiple ascending dose (Part B) pharmacokinetics after low-fat meal; format: in vivo, human; conditions: human, urine and plasma, oral, 200 mg, 200 mg BID (B1), Day 7, low-fat meal
experimentalReadout: CL renal

### Prompt Please give the measured CL renal for this compound: Cn1cc(-c2cn(-c3ccc(OC(F)(F)F)cc3)c(=O)c3ncn(C)c23)cn1 [Compound I]
### Response 61.2 mL/min

###

assay: Phase 1 single ascending dose (Part A) pharmacokinetics, fasted state; type: in vivo, human; conditions: human, plasma, oral, 400 mg single dose (A4), read-out: Vz/F(norm)
experimentalReadout: Vd/F
Please make sure the unit comes right after the number.

### Prompt Please give the measured Vd/F for this compound: Cn1cc(-c2cn(-c3ccc(OC(F)(F)F)cc3)c(=O)c3ncn(C)c23)cn1 [Compound I]
### Response 1.74 L/kg

###

Assay: Phase 1 Part A food effect (high-fat / low-fat breakfast) on single-dose pharmacokinetics
Assay type: in vivo, human
Conditions: human, plasma, oral, 400 mg, 400 mg single dose (A4), Fed, Low-fat; read-out: Cmax
From the text: This study was a randomized, blinded, placebo-controlled, ascending-dose study to evaluate the safety, tolerability, and pharmacokinetic (PK) of single (Part A) and multiple (Part B) doses of Compound I in healthy subjects. […]
experimentalReadout: Cmax (ng/mL)
Hi! Could you send only the number? It should be in ng/mL, unit omitted.

### Prompt Please give the measured Cmax for this molecule: "Cn1cc(-c2cn(-c3ccc(OC(F)(F)F)cc3)c(=O)c3ncn(C)c23)cn1"
### Response 7420

###

experiment: Phase 1 single ascending dose (Part A) pharmacokinetics, fasted state; type: in vivo, human; settings: human, urine, oral, 200 mg single dose (A3)
experimentalReadout: CL renal

### Prompt Please give the measured CL renal for this molecule: "Cn1cc(-c2cn(-c3ccc(OC(F)(F)F)cc3)c(=O)c3ncn(C)c23)cn1"
### Response 63.5 mL/min
